# System: murine TTC39B mRNA
# Assay overview: In vivo antisense inhibition of murine TTC39B mRNA in liver of C57BL/6 mice
# Set-up: species or system mouse
# Run conditions: 50 mg/kg/week, 6 weeks, relative to PBS control
Oligonucleotides are written 5' to 3', each unit as a sugar letter and its base; * is a phosphorothioate linkage, no mark a phosphodiester; rarer units and linkages stand in square brackets, end groups in braces. Plain capitals give the bases only. e = 2'-O-(2-methoxyethyl) (MOE); [5mC] = 5-methylcytosine; d = 2'-deoxy (DNA)

- Seq text: "GCAGCTCGATTCGGGCATGA (antisense eG*e[5mC]*eA*eG*e[5mC]*dT*d[5mC]*dG*dA*dT*dT*d[5mC]*dG*dG*dG*e[5mC]*eA*eT*eG*eA) [ISIS 447118]"
  Target under test: "murine TTC39B mRNA"
  Units label: "%"
  % inhibition of TTC39B mRNA in liver: 73
- Seq text: "CGGATGATTCTTGCTGGTAA (antisense e[5mC]*eG*eG*eA*eT*dG*dA*dT*dT*d[5mC]*dT*dT*dG*d[5mC]*dT*eG*eG*eT*eA*eA) [ISIS 447114]"
  Target under test: "murine TTC39B mRNA"
  Units label: "%"
  % inhibition of TTC39B mRNA in liver: 49
- Seq text: "GCCACCAGTGCCTGCTGAGC (antisense eG*e[5mC]*e[5mC]*eA*e[5mC]*d[5mC]*dA*dG*dT*dG*d[5mC]*d[5mC]*dT*dG*d[5mC]*eT*eG*eA*eG*e[5mC]) [ISIS 447143]"
  Target under test: "murine TTC39B mRNA"
  Units label: "%"
  % inhibition of TTC39B mRNA in liver: 85
- Seq text: "TATTTCTATAGCTCATGACA (antisense eT*eA*eT*eT*eT*d[5mC]*dT*dA*dT*dA*dG*d[5mC]*dT*d[5mC]*dA*eT*eG*eA*e[5mC]*eA) [ISIS 447144]"
  Target under test: "murine TTC39B mRNA"
  Units label: "%"
  % inhibition of TTC39B mRNA in liver: 70
